system: Candida haemulonii var. vulnera; test: Planktonic growth, broth microdilution (CLSI M27-A3), MIC; format: cell-based; conditions: geometric mean of three C. haemulonii var. vulnera isolates

- compound: "O=C1C(=O)c2cccnc2-c2ncccc21.O=C1C(=O)c2cccnc2-c2ncccc21.[Ag+].[O-][Cl+3]([O-])([O-])[O-] [compound 15, [Ag(phendione)2]ClO4]"
  assayed_target: "Candida haemulonii var. vulnera"
  comparator: "="
  GM-MIC, µg/mL: 1.26
- compound: "O.O.O.O=C([O-])CCCCCCCCCC(=O)[O-].[Ag+].[Ag+].c1cnc2c(c1)ccc1cccnc12.c1cnc2c(c1)ccc1cccnc12.c1cnc2c(c1)ccc1cccnc12 [compound 18, [Ag2(phen)3(udda)].3H2O]"
  assayed_target: "Candida haemulonii var. vulnera"
  comparator: "="
  GM-MIC, µg/mL: 0.25
- compound: "CCO.CCO.O.O.O.O=C([O-])c1ccccc1C(=O)[O-].[Cu+2].c1cnc2c(c1)ccc1cccnc12.c1cnc2c(c1)ccc1cccnc12 [compound 2, [Cu(ph)(phen)2].3H2O.2EtOH]"
  assayed_target: "Candida haemulonii var. vulnera"
  comparator: ">"
  GM-MIC, µg/mL: 32
- compound: "CCO.O=C([O-])CCCCCCC(=O)[O-].[Cu+2].[Cu+2].[O-][Cl+3]([O-])([O-])[O-].[O-][Cl+3]([O-])([O-])[O-].c1cnc2c(c1)ccc1cccnc12.c1cnc2c(c1)ccc1cccnc12.c1cnc2c(c1)ccc1cccnc12.c1cnc2c(c1)ccc1cccnc12 [compound 5, [Cu2(oda)(phen)4](ClO4)2.2.76H2O.EtOH]"
  assayed_target: "Candida haemulonii var. vulnera"
  comparator: "="
  GM-MIC, µg/mL: 10.08
- compound: "[Cl][Mn][Cl] [MnCl2, reference compound]"
  assayed_target: "Candida haemulonii var. vulnera"
  comparator: ">"
  GM-MIC, µg/mL: 32
- compound: "O.O.O.O.O.O=C([O-])c1ccc(C(=O)[O-])cc1.[Mn+2].c1cnc2c(c1)ccc1cccnc12.c1cnc2c(c1)ccc1cccnc12 [compound 12, [Mn(tereph)(phen)2].5H2O]"
  assayed_target: "Candida haemulonii var. vulnera"
  comparator: "="
  GM-MIC, µg/mL: 4
- compound: "O.O.O.O.O=C1C(=O)c2cccnc2-c2ncccc21.O=C1C(=O)c2cccnc2-c2ncccc21.O=C1C(=O)c2cccnc2-c2ncccc21.[Cu+2].[O-][Cl+3]([O-])([O-])[O-].[O-][Cl+3]([O-])([O-])[O-] [compound 6, [Cu(phendione)3](ClO4)2.4H2O]"
  assayed_target: "Candida haemulonii var. vulnera"
  comparator: "="
  GM-MIC, µg/mL: 6.35
- compound: "[Ag+].[O-][Cl+3]([O-])([O-])[O-].c1cnc2c(c1)ccc1cccnc12.c1cnc2c(c1)ccc1cccnc12 [compound 17, [Ag(phen)2]ClO4]"
  assayed_target: "Candida haemulonii var. vulnera"
  comparator: "="
  GM-MIC, µg/mL: 0.63
- compound: "CCO.O=C([O-])COCCOCCOCC(=O)[O-].[Ag+].[Ag+].c1cnc2c(c1)ccc1cccnc12.c1cnc2c(c1)ccc1cccnc12.c1cnc2c(c1)ccc1cccnc12.c1cnc2c(c1)ccc1cccnc12 [compound 16, [Ag2(3,6,9-tdda)(phen)4].EtOH]"
  assayed_target: "Candida haemulonii var. vulnera"
  comparator: "="
  GM-MIC, µg/mL: 0.79
- compound: "O.O.O.O.O.O.O=C([O-])CCCCCCC(=O)[O-].O=C([O-])CCCCCCC(=O)[O-].O=C([O-])CCCCCCC(=O)[O-].O=C([O-])CCCCCCC(=O)[O-].[Mn+2].[Mn+2].[Mn+2].[Mn+2].c1cnc2c(c1)ccc1cccnc12.c1cnc2c(c1)ccc1cccnc12.c1cnc2c(c1)ccc1cccnc12.c1cnc2c(c1)ccc1cccnc12.c1cnc2c(c1)ccc1cccnc12.c1cnc2c(c1)ccc1cccnc12.c1cnc2c(c1)ccc1cccnc12.c1cnc2c(c1)ccc1cccnc12 [compound 13]"
  assayed_target: "Candida haemulonii var. vulnera"
  comparator: "="
  GM-MIC, µg/mL: 2

* * *

test system: C. haemulonii complex; test: Planktonic growth, overall across all nine isolates; type: cell-based, Candida haemulonii complex; settings: geometric mean across all nine strains
The entries below come with measured Overall GM-MIC values attached.

- compound: "[Cl][Cu][Cl] [CuCl2, reference compound]"
  endpoint_unit: "µg/mL"
  comparator: ">"
  Overall GM-MIC: 32
- compound: "O.O.O.O=C([O-])CCCCCCCCCC(=O)[O-].[Ag+].[Ag+].c1cnc2c(c1)ccc1cccnc12.c1cnc2c(c1)ccc1cccnc12.c1cnc2c(c1)ccc1cccnc12 [compound 18, [Ag2(phen)3(udda)].3H2O]"
  endpoint_unit: "µg/mL"
  comparator: "="
  Overall GM-MIC: 0.27
- compound: "O.O.O=C([O-])c1ccccc1C(=O)[O-].[Mn+2].c1cnc2c(c1)ccc1cccnc12 [compound 8, [Mn(ph)(phen)(H2O)2]]"
  endpoint_unit: "µg/mL"
  comparator: "="
  Overall GM-MIC: 4.67
- compound: "O.O.O.O.O=C([O-])c1cccc(C(=O)[O-])c1.O=C([O-])c1cccc(C(=O)[O-])c1.[Mn+2].[Mn+2].c1cnc2c(c1)ccc1cccnc12.c1cnc2c(c1)ccc1cccnc12.c1cnc2c(c1)ccc1cccnc12 [compound 10, [Mn2(isoph)2(phen)3].4H2O]"
  endpoint_unit: "µg/mL"
  comparator: "="
  Overall GM-MIC: 5.44
- compound: "O.O.O.O.O.O=C([O-])c1ccccc1C(=O)[O-].[Mn+2].c1cnc2c(c1)ccc1cccnc12.c1cnc2c(c1)ccc1cccnc12 [compound 9, [Mn(ph)(phen)2(H2O)].4H2O]"
  endpoint_unit: "µg/mL"
  comparator: "="
  Overall GM-MIC: 2
- compound: "O.O.O.O.O.O=C([O-])c1ccc(C(=O)[O-])cc1.[Mn+2].c1cnc2c(c1)ccc1cccnc12.c1cnc2c(c1)ccc1cccnc12 [compound 12, [Mn(tereph)(phen)2].5H2O]"
  endpoint_unit: "µg/mL"
  comparator: "="
  Overall GM-MIC: 4
- compound: "O.O.O.O.O=C1C(=O)c2cccnc2-c2ncccc21.O=C1C(=O)c2cccnc2-c2ncccc21.O=C1C(=O)c2cccnc2-c2ncccc21.[Cu+2].[O-][Cl+3]([O-])([O-])[O-].[O-][Cl+3]([O-])([O-])[O-] [compound 6, [Cu(phendione)3](ClO4)2.4H2O]"
  endpoint_unit: "µg/mL"
  comparator: "="
  Overall GM-MIC: 9.33

* * *

test system: Candida haemulonii var. vulnera; assay: Planktonic growth, broth microdilution (CLSI M27-A3), MIC; type: cell-based; conditions: isolate LIP Ch9; planktonic, 48 h, 37°C
# key: entry, value: MIC

- compound: "CCO.CCO.O.O.O.O=C([O-])c1ccccc1C(=O)[O-].[Cu+2].c1cnc2c(c1)ccc1cccnc12.c1cnc2c(c1)ccc1cccnc12 [compound 2, [Cu(ph)(phen)2].3H2O.2EtOH]"
  endpoint_unit: "mg/L"
  comparator: ">"
  MIC: 32
- compound: "[Cl][Cu][Cl] [CuCl2, reference compound]"
  endpoint_unit: "mg/L"
  comparator: ">"
  MIC: 32
- compound: "O.O.O.O.O.O=C([O-])c1ccc(C(=O)[O-])cc1.[Mn+2].c1cnc2c(c1)ccc1cccnc12.c1cnc2c(c1)ccc1cccnc12 [compound 12, [Mn(tereph)(phen)2].5H2O]"
  endpoint_unit: "mg/L"
  comparator: "="
  MIC: 4
- compound: "[Cl][Mn][Cl] [MnCl2, reference compound]"
  endpoint_unit: "mg/L"
  comparator: ">"
  MIC: 32
- compound: "O.O.O=C([O-])c1ccccc1C(=O)[O-].[Cu+2].c1cnc2c(c1)ccc1cccnc12 [compound 1, [Cu(ph)(phen)(H2O)2]]"
  endpoint_unit: "mg/L"
  comparator: ">"
  MIC: 32
- compound: "CCO.CCO.O=C([O-])c1ccc(C(=O)[O-])cc1.O=C([O-])c1ccc(C(=O)[O-])cc1.[Cu+2].[Cu+2].c1cnc2c(c1)ccc1cccnc12.c1cnc2c(c1)ccc1cccnc12.c1cnc2c(c1)ccc1cccnc12.c1cnc2c(c1)ccc1cccnc12 [compound 4]"
  endpoint_unit: "mg/L"
  comparator: "="
  MIC: 32
- compound: "[Ag+].[O-][Cl+3]([O-])([O-])[O-].c1cnc2c(c1)ccc1cccnc12.c1cnc2c(c1)ccc1cccnc12 [compound 17, [Ag(phen)2]ClO4]"
  endpoint_unit: "mg/L"
  comparator: "="
  MIC: 0.5
- compound: "O.O.O.O.O.O.O=C([O-])CCCCCCC(=O)[O-].O=C([O-])CCCCCCC(=O)[O-].O=C([O-])CCCCCCC(=O)[O-].O=C([O-])CCCCCCC(=O)[O-].[Mn+2].[Mn+2].[Mn+2].[Mn+2].c1cnc2c(c1)ccc1cccnc12.c1cnc2c(c1)ccc1cccnc12.c1cnc2c(c1)ccc1cccnc12.c1cnc2c(c1)ccc1cccnc12.c1cnc2c(c1)ccc1cccnc12.c1cnc2c(c1)ccc1cccnc12.c1cnc2c(c1)ccc1cccnc12.c1cnc2c(c1)ccc1cccnc12 [compound 13]"
  endpoint_unit: "mg/L"
  comparator: "="
  MIC: 2
- compound: "O=[N+]([O-])[O-].[Ag+] [AgNO3, reference compound]"
  endpoint_unit: "mg/L"
  comparator: "="
  MIC: 0.5
- compound: "CCO.O=C([O-])CCCCCCC(=O)[O-].[Cu+2].[Cu+2].[O-][Cl+3]([O-])([O-])[O-].[O-][Cl+3]([O-])([O-])[O-].c1cnc2c(c1)ccc1cccnc12.c1cnc2c(c1)ccc1cccnc12.c1cnc2c(c1)ccc1cccnc12.c1cnc2c(c1)ccc1cccnc12 [compound 5, [Cu2(oda)(phen)4](ClO4)2.2.76H2O.EtOH]"
  endpoint_unit: "mg/L"
  comparator: "="
  MIC: 16
- compound: "O.O.O.O.O=C([O-])c1cccc(C(=O)[O-])c1.O=C([O-])c1cccc(C(=O)[O-])c1.[Mn+2].[Mn+2].c1cnc2c(c1)ccc1cccnc12.c1cnc2c(c1)ccc1cccnc12.c1cnc2c(c1)ccc1cccnc12 [compound 10, [Mn2(isoph)2(phen)3].4H2O]"
  endpoint_unit: "mg/L"
  comparator: "="
  MIC: 4
- compound: "O.O.O.O.O.O=C([O-])c1ccccc1C(=O)[O-].[Mn+2].c1cnc2c(c1)ccc1cccnc12.c1cnc2c(c1)ccc1cccnc12 [compound 9, [Mn(ph)(phen)2(H2O)].4H2O]"
  endpoint_unit: "mg/L"
  comparator: "="
  MIC: 2
